Ref: PubChem BioAssay (NCATS)

# protocol.details: BET inhibitor-based combinations targeting novel dependencies in MECOM-rearranged (r) AML: HNT-34 cell line (AID 2202234); also: nearly all actives have a fitted effect of over 35% in size
# measurement.parameters: HNT-34 AML viability, CellTiter-Glo luminescence, 48 h; series mostly up to 46 µM
Inconclusive results are not listed. Active and inactive are the calls of the source. Calls follow the shape of the dose curve; as a rule, active = well fitted inhibition curve with a large enough effect; inconclusive = small, poorly fitted or top-dose-only effect; inactive = no such curve, though single readings can be large or run the other way.
Pick one: active, inactive

molecule	group.label
CC(=O)OCCN1C(=O)c2c(C)nc3ccc(S(=O)(=O)N4CCOCC4)cc3c2C1=O	inactive

Record lookup: outcome of this test for CNC(=O)c1ccc2cc(C3(O)CCn4cncc43)ccc2c1 (centres undefined) ?
inactive

Can you look up the reported call for NCCCC(N)(C(=O)O)C(F)F (centres undefined) for me?
inactive

Give the logged outcome of this assay for the following molecule: CC1(C)CC(=O)c2c(C(F)(F)F)nn(-c3ccc(C(N)=O)c(NC4CCC(OC(=O)CN)CC4)c3)c2C1 (centres undefined)
active

How did this test come out for COC(=O)/C=C/C(=O)N(O)CCCCNCc1ccc(COC(=O)Nc2cccc3ccccc23)cc1 ?
active

For CC[C@@H](C)Nc1cc(C(=O)NC2CC3CC[C@@H](C2)N3c2ccc(C(=O)C3CC3)cn2)c(C)cc1C(N)=O (some centres undefined) , which call appears in the assay record?
active
